- system.under.test: LILRB2 antigen of the ELISA of Table 5 (format not specified) (UniProt Q8N423 22-460, limits assumed)
- Sequence (Q8N423 22-460 limits assumed): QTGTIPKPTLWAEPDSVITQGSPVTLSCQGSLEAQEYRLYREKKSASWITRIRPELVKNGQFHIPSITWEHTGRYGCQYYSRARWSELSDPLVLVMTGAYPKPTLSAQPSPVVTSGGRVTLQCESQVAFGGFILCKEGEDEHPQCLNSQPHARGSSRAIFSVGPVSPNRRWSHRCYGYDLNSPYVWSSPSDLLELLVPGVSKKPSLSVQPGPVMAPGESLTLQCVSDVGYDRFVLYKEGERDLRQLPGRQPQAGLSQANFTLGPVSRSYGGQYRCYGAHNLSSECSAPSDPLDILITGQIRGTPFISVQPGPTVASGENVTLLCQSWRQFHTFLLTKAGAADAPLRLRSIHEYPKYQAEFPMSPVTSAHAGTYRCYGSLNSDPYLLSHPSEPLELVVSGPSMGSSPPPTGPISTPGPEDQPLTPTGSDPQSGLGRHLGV
- test.description: ELISA, antibody titration
Measured pKd of individual entries
Quick note: pKd means taking -log10 of the concentration in moles per liter.

INSERT INTO results (binder, recorded_measurement) VALUES
  ('Antibody 3B5 (antibody, V domains shown, Mouse hybridoma mAb purified from ascites) VH: EVQLQQSGPELVKPGASLKISCKASGYTFTDYNMHWVKQSHGKSLEWIGSIYPYNGDTDYNQKFKSKATLTIDNSSSTAFMDLRSLTSEDSAVYYCARENDYDGPPFPYWGLGTLVTVSA VL: DIQMTQSSSSFSVSLGDRVTITCKASEDIYNRLAWYQQKSGNAPRLLISGATSLETGVPSRFSGSGSGKDYTLSITSLQTEDVATYYCQQYWSIRTFGGGTKLEIK', 8.53);

Incoming: Quote pKd reported for Antibody 14C11 (antibody, V domains shown, Mouse hybridoma mAb purified from ascites) VH: EVQLQQSGPDLVKPGASVKISCKASGYIFTDFNMHWVKQSHGKSLEWIGYIYPFNGGTGYNQKFENKATLTVDNSSSTAYMEVRSLTSEDSAVYYCARRGGRGHFDYWGQGTTLTVSS VL: DIQMTQSPASLSASVGETVTVTCRASGNIHNYLAWYQQKQGKSPQLLVYNAKTLADGVPSRFSGSGSGTQFSLKINSLQPEDFGSYYCQHFWNTPFTFGSGTKLEIK please.
Outgoing: 9.09

Incoming: Kindly indicate its recorded pKd. Item: Antibody 10B11 (antibody, V domains shown, Mouse hybridoma mAb purified from ascites) VH: EIQLQQSGPELVKPGASVKVSCKASGNSFTDNNIYWVKQSHGESLEWIGYIDPFNGRTTYNQKFKGKATLTVDKSSSTAFMHLNSLTSGDSAVYYCARGDYFNYWGQGTTLTVSS VL: EIQMTQTTSSLSASLGDRVTISCSASQGINNYLNWFQQKSDGTVKLLIYYTSSLHSGVPSRFSGSGSGTDYSLTISNLEPEDIAIYYCQQYSNLPFTFGGGTELEIK
Outgoing: 9.71

Incoming: Given the binder Antibody 2F1 (antibody, V domains shown, Mouse hybridoma mAb purified from ascites) VH: EVKLEESGGGLVQPGGSMKLSCAASGFTFSDAWMDWVRQSPKKGLEWVAEIRSKSNNHTTYYAESVKGRFTISRDDSKSSVYLQMNSLRAEDTGIYYCTRDWLTYWGQGTLVTVSA VL: DIVLTQSPASLAVSLGQRATISCRASKSVSTSGYSYMNWYQQKPGQPPKLLIYLASNLESGVPARFSGSGSGTDFTLNIHPVEEEDAATYYCQHSRELPLTFGAGTKLELK , write its reported pKd.
Outgoing: 8.66

Incoming: Read the entry Antibody 9H6 (antibody, V domains shown, Mouse hybridoma mAb purified from ascites) VH: EVQLQQSGAELVRPGALVKLSCKASGFNVKDYYMHWVKQRPEQGLEWIGWIDPKNGNGIYDPKFQGKASITADTSSNTAYLQLSSLTSEDTSVYYCARGDYFGSSYLFAYWGQGTLVTVSA VL: DIVMTQSHKFMSTSVGDRVSITCKASQDVSTAVAWYQQKPGQSPKLLIYSASYRYTGVPDRFTGSGSGTDFTFTISSVQAEDLAVYYCQQHYSTPWTFGGGAKLEIK and write its reported pKd.
Outgoing: 8.98
